TESTED_TARGET: human TLR3 ectodomain (Wuxi Biologics, custom order) (human, UniProt O15455 24-704, biotin (for yeast display))
METHOD_DESCRIPTION: BLI
Where no end group is shown, it is not given here.
OBSERVED_PROPERTY: Kd (µM)

[
  {
    "BINDER": "minibinder 7.6 (designed binder, also: biotin) SAMEYYVKELLRTAEYAREAGDPEDVRKALEKAELVARILHNEELKEEIREVEEEL",
    "UNIT_SPEC": "µM",
    "READOUT_NUMBER": 0.024
  },
  {
    "BINDER": "minibinder 7.12 (designed binder, also: biotin) SAMEYYVKELLRTAEYAREAGDPEDVRNALEQAELVARILHNEELKEEIREVEEEL",
    "UNIT_SPEC": "µM",
    "READOUT_NUMBER": 0.108
  },
  {
    "BINDER": "minibinder 7.11 (designed binder, also: biotin) SAMEYYVKELLRTAEYAREAGDPEDVRKALEQAELVARILHNEELKEEIREVEEEL",
    "UNIT_SPEC": "µM",
    "READOUT_NUMBER": 0.045
  },
  {
    "BINDER": "minibinder 7.9 (designed binder, also: biotinylated (site not given here)) SAMEYYVKELLRTAEYAREAGDPEYVRNALEQAELVARILHNEELKEEIREVEEEL",
    "UNIT_SPEC": "µM",
    "READOUT_NUMBER": 0.095
  },
  {
    "BINDER": "minibinder 7.7 (designed binder, also: biotin) SAMEYYVKELLRTAEYAREAGDPEYVRKALEKAELVARILHNEELKEEIREVEEEL",
    "UNIT_SPEC": "µM",
    "READOUT_NUMBER": 0.031
  }
]

(I) minibinder 7.3 (designed binder, also: biotin) SAMEYYVKVLLRTAEYAREAGDPEYVRKALEQAELVARILHNEELKEEIREVEEEL
(II) minibinder 7.5 (designed binder, also: biotin) SAMEYYVKVLLRTAEYAREAGDPEDVRKALEQAELVARILHNEELKEEIREVEEEL
Qu. Select one: I or II . Criterion: greater recorded Kd. Indicate your choice by writing its label.
Ans. I

(P) minibinder 7.4 (designed binder, also: biotin) SAMEYYVNVLLRTAEYAREAGDPEDVRKALEKAELVARILHNEELKEEIREVEEEL
(Q) minibinder 7.10 (designed binder, also: biotin) SAMEYYVKELLRTAEYAREAGEPEYVRNALEQAELVARILHNEELKEEIREVEEEL
Qu. Identify the entry with the smaller Kd: P or Q . Indicate your choice by writing its label.
Ans. P

(a) minibinder 7.8 (designed binder, also: biotinylated (site not given here)) SAMEYYVKELLRTAEYAREAGDPEYVRKALEQAELVARILHNEELKEEIREVEEEL
(b) minibinder 7.2 (designed binder, also: biotin) SAMEYYVKVLLRTAEYAREAGDPEYVRKALEKAELVARILHNEELKEEIREVEEEL
Qu. Select one: a or b . Criterion: greater recorded Kd. Indicate your choice by writing its label.
Ans. a
(a: 0.04 µM, b: 0.017 µM)

Values from paper doi:10.1101/2024.04.17.589973
